These entries and their values trace back to patent US20210347873A1.

Each item that follows carries a reported OD450 nm.
SUBJECT OF TEST: T1, biotinylated hBLyS-ECD (human, UniProt Q9Y275 134-285, biotinylated with Biotin-X-X-NHS (molar ratio 7:1); sites not stated)
T1 construct: also called biotinylated immunogen; biotinylated hBLvS-ECD
PROTOCOL DESCRIPTION: ELISA on captured biotinylated hBLyS-ECD; antibody 0.534 nM
Numeric only. Scale: OD450 nm

{"BINDER": "c8E7D9C7F5 (antibody, V domains shown, also called chimeric antibody c8E7D9C7F5) VH: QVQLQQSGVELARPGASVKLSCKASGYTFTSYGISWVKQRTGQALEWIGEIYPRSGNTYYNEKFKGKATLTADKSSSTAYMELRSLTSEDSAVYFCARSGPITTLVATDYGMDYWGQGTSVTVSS VL: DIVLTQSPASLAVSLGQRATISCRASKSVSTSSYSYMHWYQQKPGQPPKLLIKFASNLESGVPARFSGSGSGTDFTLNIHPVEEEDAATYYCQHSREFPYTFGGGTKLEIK", "UNITS OF MEASURE": "OD450 nm", "OD450 nm": 3.07}
{"BINDER": "c97A3C2H4 (antibody, V domains shown, also called chimeric antibody c97A3C2H4) VH: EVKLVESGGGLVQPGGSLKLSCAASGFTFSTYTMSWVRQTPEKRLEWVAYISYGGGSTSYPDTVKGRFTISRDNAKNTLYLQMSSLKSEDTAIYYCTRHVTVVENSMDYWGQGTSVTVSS VL: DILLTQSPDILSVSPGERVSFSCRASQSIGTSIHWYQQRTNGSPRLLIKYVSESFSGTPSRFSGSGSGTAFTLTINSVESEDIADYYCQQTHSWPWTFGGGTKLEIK", "UNITS OF MEASURE": "OD450 nm", "OD450 nm": 3.26}

Please find the next binder below.
What does the record list as OD450 nm for c111D10D6G3 (antibody, V domains shown) VH: QVQLQQPGAELVKPGASVKMSCKASGYTFTRHWITWVKQRPGQGLEWIGDIFPGSGSINYNEKFKSEATLTVEKSSSTAYMQLSSLTSEDSAVYYCARGDVDVWGTGTTVTVSS VL: DIQMTQSPSSLSASLGERVSLTCRASQEIRGYLSWLQQKPNGTIKRLIYAASTLDSGVPKRFSATRSGSDFSLTISSLESEDFADYYCLQYASYPFTFGSGTKLEIK ?
3.16
